Reference for the values: patent US6767991B1

experimental_target: recombinant HCV NS3 protease type 1b (Hepatitis C virus genotype 1b)
Construct: recombinant HCV NS3 protease (amino acid 1027 to 1206) was cloned in the pET11d bacterial expression vector; made in house; host or cells: E. coli BL21(DE3)pLysS
Sequence (P26663 1027-1206): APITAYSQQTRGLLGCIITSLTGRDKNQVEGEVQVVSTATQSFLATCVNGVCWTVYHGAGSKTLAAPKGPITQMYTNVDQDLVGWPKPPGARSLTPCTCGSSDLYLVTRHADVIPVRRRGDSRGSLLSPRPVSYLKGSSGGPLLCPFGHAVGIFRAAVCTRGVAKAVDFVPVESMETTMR
experiment_description: Recombinant HCV NS3 protease radiometric assay
Format: biochemical, HCV genotype 1b
pIC50: −log10 of the molar value. Where no end group is shown, it is not given here.
Let's look at some substances and their measured pIC50.
measurement_type: pIC50

>>> recorded_number("Ac-DDLVPC [compound 112]")
4.04
>>> recorded_number("Ac-DVIVPC [compound 107]")
4.07
>>> recorded_number("Ac-DDVVPC [compound 109]")
4.10
